- assayTarget: Muscarinic acetylcholine receptor M3 (Homo sapiens)
- assayOverview: Evaluated for its binding affinity at human muscarinic receptor m3 by the displacement of [3H]NMS binding using membranes from transfected chinese hamster ovarian cell
# key: entry, value: IC50
The figure you give is taken to be in µM; do not add the unit.

CCOC(=O)c1c[nH]c2ccc3c(c12)CN1CCc2cc(OC)ccc2C1O3 (stereo unspecified)    3.7
COc1ccc2c(c1)CCN1Cc3c(ccc4[nH]c(C)cc34)OC21 (stereo unspecified)    15.3

Query: # query: IC50 of entry CCOC(=O)c1c(C)[nH]c2ccc3c(c12)CN1CCc2cc(OCC)ccc2C1O3 (stereo unspecified)
Reply: 2.63

Query: Which IC50 value is on record for CCOC(=O)c1c(C)[nH]c2ccc3c(c12)CN1CCc2cc(OC)c(OC)cc2C1O3 (stereo unspecified) ?
Reply: 1.62

Query: Look at this molecule and give its reported IC50. CCOC(=O)c1c(C)[nH]c2ccc3c(c12)CN1CCc2ccccc2C1O3 (stereo unspecified)
Reply: 5.49

Query: I'd like to know its IC50. The molecule in question is COC(=O)c1c(C)[nH]c2ccc3c(c12)CN1CCc2cc(OC)ccc2C1O3 (stereo unspecified)
Reply: 3.39

====

Measured IC50 values are reported for all entries that follow.
- assayTarget: Muscarinic acetylcholine receptor M4 (Homo sapiens, UniProt P08173)
- assayOverview: Evaluated for its binding affinity at human muscarinic receptor m4 by the displacement of [3H]NMS binding using membranes from transfected chinese hamster ovarian cell

Known IC50 results, listed for orientation:
CCOC(=O)c1c[nH]c2ccc3c(c12)CN1CCc2cc(OC)ccc2C1O3 (stereo not given)    334 nM
CCOC(=O)c1c[nH]c2ccc3c(c12)CN1CCc2cc(OC)c(OC)cc2C1O3 (stereo not given)    1500 nM
CCCOC(=O)c1c(C)[nH]c2ccc3c(c12)CN1CCc2cc(OC)ccc2C1O3 (stereo not given)    360 nM
CCOC(=O)c1c(C)[nH]c2ccc3c(c12)CN1CCc2cccc(C)c2C1O3 (stereo not given)    1470 nM

Please look at the following compound next.
Query: Form field - read-out: IC50; system: Muscarinic acetylcholine receptor M4 (Homo sapiens, UniProt P08173); submitted item: COc1ccc2c(c1)CCN1Cc3c(ccc4[nH]c(C)cc34)OC21 (stereo not given)
Reply: 9740 nM

====

- assayTarget: UniProt P08173
- Sequence (P08173 whole entry): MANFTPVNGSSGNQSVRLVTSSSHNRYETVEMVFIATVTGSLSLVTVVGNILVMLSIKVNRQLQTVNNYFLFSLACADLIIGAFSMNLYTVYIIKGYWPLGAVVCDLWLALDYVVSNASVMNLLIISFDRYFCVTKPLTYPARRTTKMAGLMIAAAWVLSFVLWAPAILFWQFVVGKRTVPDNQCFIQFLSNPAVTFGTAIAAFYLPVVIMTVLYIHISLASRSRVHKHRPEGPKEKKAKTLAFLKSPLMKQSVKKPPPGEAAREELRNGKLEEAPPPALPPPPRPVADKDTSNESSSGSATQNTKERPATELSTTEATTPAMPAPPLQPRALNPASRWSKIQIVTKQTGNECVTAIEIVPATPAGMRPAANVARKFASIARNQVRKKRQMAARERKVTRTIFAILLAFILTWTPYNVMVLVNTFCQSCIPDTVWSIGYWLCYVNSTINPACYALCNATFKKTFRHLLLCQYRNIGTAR
- assayOverview: Evaluated for its binding affinity at human muscarinic receptor m4 by the displacement of [3H]NMS binding using membranes from transfected chinese hamster ovarian cell
Here the recorded IC50 is given for each entry.
Could you give me the number in µM? Just the number is fine.

Query: What value of IC50 on UniProt P08173 does COc1ccc2c(c1)CCN1Cc3c(ccc4[nH]c(C)c(C(=O)OC(C)C)c34)OC21 (stereo not given) have?
Reply: 2.05

Query: Lab note: need IC50 with UniProt P08173 for entry COC(=O)c1c(C)[nH]c2ccc3c(c12)CN1CCc2ccccc2C1O3 (stereo not given) , please look it up.
Reply: 9.93

Query: Recorded IC50 for CCOC(=O)c1c(C)[nH]c2ccc3c(c12)CN1CCc2cc(OC)ccc2C1O3 (stereo not given) with UniProt P08173, please?
Reply: 0.0907

Query: // fetch UniProt P08173 IC50 for CCOC(=O)c1c(C)[nH]c2ccc3c(c12)CN1CCc2ccc(OC)cc2C1O3 (stereo not given)
Reply: 6.03

Query: Recall the recorded IC50 for COc1cc2c(cc1OC)C1Oc3ccc4[nH]c(C)cc4c3CN1CC2 (stereo not given) with UniProt P08173 and state it.
Reply: 4.74

====

- assayTarget: Muscarinic acetylcholine receptor M3 (Homo sapiens)
- assayOverview: Evaluated for its binding affinity at human muscarinic receptor m3 by the displacement of [3H]NMS binding using membranes from transfected chinese hamster ovarian cell
reportedEndpoint: pIC50
Please note pIC50 is a logarithmic value: minus log10 of concentration in mol/L. Answer with that number alone.

Query: Param readout = pIC50; param system = Muscarinic acetylcholine receptor M3 (Homo sapiens); param query = CCOC(=O)c1c(C)[nH]c2ccc3c(c12)CN1CCc2cc(C)ccc2C1O3 (stereo not given) ; response: value
Reply: 5.57

Query: Value wanted: pIC50 (Muscarinic acetylcholine receptor M3 (Homo sapiens)) of entry COc1ccc2c(c1)CCN1Cc3c(ccc4[nH]c(C)c(C(=O)OC(C)C)c34)OC21 (stereo not given)
Reply: 5.55

====

- assayTarget: Muscarinic acetylcholine receptor M1 (Homo sapiens, UniProt P11229)
- Sequence (P11229 whole entry): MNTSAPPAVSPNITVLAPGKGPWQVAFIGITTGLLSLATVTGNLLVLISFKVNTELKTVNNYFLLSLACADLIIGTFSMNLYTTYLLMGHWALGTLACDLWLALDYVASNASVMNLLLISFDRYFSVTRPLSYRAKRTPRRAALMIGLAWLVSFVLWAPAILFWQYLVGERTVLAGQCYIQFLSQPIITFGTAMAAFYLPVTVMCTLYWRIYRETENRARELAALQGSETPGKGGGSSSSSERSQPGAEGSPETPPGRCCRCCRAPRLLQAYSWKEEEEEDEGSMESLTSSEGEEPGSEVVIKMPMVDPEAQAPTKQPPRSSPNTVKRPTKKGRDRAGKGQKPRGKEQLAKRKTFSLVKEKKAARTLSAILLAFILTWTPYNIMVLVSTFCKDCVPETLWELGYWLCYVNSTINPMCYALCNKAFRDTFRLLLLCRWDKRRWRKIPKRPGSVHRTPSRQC
- assayOverview: Evaluated for its binding affinity at human muscarinic receptor m1 by displacement of [3H]NMS binding using membranes in transfected chinese hamster ovarian cell
- Format: cell-based
Hi! Could you tag entries with IC50 below 4 µM as criterion met, and those at or above as criterion not met? Much appreciated.

Field: example entries. Status: answers known.
COC(=O)c1c(C)[nH]c2ccc3c(c12)CN1CCc2ccccc2C1O3 (configuration not stated)    criterion not met
CCOC(=O)c1c(C)[nH]c2ccc3c(c12)CN1CCc2ccccc2C1O3 (configuration not stated)    criterion not met
CCOC(=O)c1c[nH]c2ccc3c(c12)CN1CCc2cc(OC)ccc2C1O3 (configuration not stated)    criterion not met
CCOC(=O)c1c(C)[nH]c2ccc3c(c12)CN1CCc2cc(OCC)ccc2C1O3 (configuration not stated)    criterion not met

Query: hey, is IC50 for CCOC(=O)c1c(C)[nH]c2ccc3c(c12)CN1CCc2ccc(OC)cc2C1O3 (configuration not stated) lower than 4 µM or not?
Reply: criterion not met

Query: Please indicate whether the reported IC50 of COc1cc2c(cc1OC)C1Oc3ccc4[nH]c(C)cc4c3CN1CC2 (configuration not stated) is strictly below 4 µM.
Reply: criterion not met

Query: Here's an entry: CCCOC(=O)c1c(C)[nH]c2ccc3c(c12)CN1CCc2cc(OC)ccc2C1O3 (configuration not stated) . Is its IC50 below 4 µM?
Reply: criterion met

Query: Bench note: check whether COC(=O)c1c(C)[nH]c2ccc3c(c12)CN1CCc2cc(OC)ccc2C1O3 (configuration not stated) shows IC50 below 4 µM
Reply: criterion met

Query: Determine if CCOC(=O)c1c(C)[nH]c2ccc3c(c12)CN1CCc2cccc(C)c2C1O3 (configuration not stated) shows IC50 strictly lower than 4 µM.
Reply: criterion not met

Query: Is 4 µM strictly greater than the molecule's reported IC50? molecule: CC1OC(=O)[C@H]2C[C@H]3CCCC[C@@H]3[C@@H](/C=C/C3CCC[C@H](C)N3C)[C@@H]12 (single isomer, unassigned)
Reply: criterion met

Query: Is 4 µM strictly greater than the molecule's reported IC50? molecule: COc1ccc2c(c1)CCN1Cc3c(ccc4[nH]c(C)cc34)OC21 (configuration not stated)
Reply: criterion not met

====

- assayTarget: Muscarinic acetylcholine receptor M3 (Homo sapiens, UniProt P20309)
- Sequence (P20309 whole entry): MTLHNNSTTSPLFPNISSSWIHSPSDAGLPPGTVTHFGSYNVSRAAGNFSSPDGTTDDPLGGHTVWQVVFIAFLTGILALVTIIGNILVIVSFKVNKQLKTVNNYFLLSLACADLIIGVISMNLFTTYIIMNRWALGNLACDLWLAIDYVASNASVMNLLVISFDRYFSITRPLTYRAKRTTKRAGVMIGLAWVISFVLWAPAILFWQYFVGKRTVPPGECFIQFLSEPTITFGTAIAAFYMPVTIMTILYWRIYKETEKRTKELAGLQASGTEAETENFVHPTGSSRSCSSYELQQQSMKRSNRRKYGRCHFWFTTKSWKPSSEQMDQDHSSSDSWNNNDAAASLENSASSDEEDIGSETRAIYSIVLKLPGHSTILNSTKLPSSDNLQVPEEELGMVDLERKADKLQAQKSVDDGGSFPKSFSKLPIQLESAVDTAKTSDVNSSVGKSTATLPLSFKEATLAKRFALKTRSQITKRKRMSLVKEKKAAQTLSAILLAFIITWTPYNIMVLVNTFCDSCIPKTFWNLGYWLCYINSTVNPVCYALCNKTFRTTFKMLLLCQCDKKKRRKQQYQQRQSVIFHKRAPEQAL
- assayOverview: Evaluated for its binding affinity at human muscarinic receptor m3 by the displacement of [3H]NMS binding using membranes from transfected chinese hamster ovarian cell
reportedEndpoint: IC50 (µM)
Note: unit µM is implicit; provide only the numeric part.

CCOC(=O)c1c(C)[nH]c2ccc3c(c12)CN1CCc2cc(Oc4ccccc4)ccc2C1O3 (stereo not drawn)    3.07

Query: Query for Muscarinic acetylcholine receptor M3 (Homo sapiens, UniProt P20309): what IC50 does the record show for CCCOC(=O)c1c(C)[nH]c2ccc3c(c12)CN1CCc2cc(OC)ccc2C1O3 (stereo not drawn) ?
Reply: 1.48

Query: Recorded IC50 for COc1cc2c(cc1OC)C1Oc3ccc4[nH]c(C)cc4c3CN1CC2 (stereo not drawn) with Muscarinic acetylcholine receptor M3 (Homo sapiens, UniProt P20309), please?
Reply: 32.6

Query: What measured IC50 is associated with CCOC(=O)c1c(C)[nH]c2ccc3c(c12)CN1CCc2ccc(OC)cc2C1O3 (stereo not drawn) on Muscarinic acetylcholine receptor M3 (Homo sapiens, UniProt P20309)?
Reply: 10.8

Query: Reported IC50 for Muscarinic acetylcholine receptor M3 (Homo sapiens, UniProt P20309), given CCOC(=O)c1c(C)[nH]c2ccc3c(c12)CN1CCc2cccc(C)c2C1O3 (stereo not drawn) ?
Reply: 2.83

Query: Form entry - test system: Muscarinic acetylcholine receptor M3 (Homo sapiens, UniProt P20309); read-out: IC50; compound: CCOC(=O)c1c(C)[nH]c2ccc3c(c12)CN1CCc2cc(OC)ccc2C1O3 (stereo not drawn)
Reply: 0.95

Query: Hi! What's the reported IC50 for COC(=O)c1c(C)[nH]c2ccc3c(c12)CN1CCc2ccccc2C1O3 (stereo not drawn) on Muscarinic acetylcholine receptor M3 (Homo sapiens, UniProt P20309)?
Reply: 12.6

Query: Notebook: pull reported IC50 for Muscarinic acetylcholine receptor M3 (Homo sapiens, UniProt P20309), entry CCOC(=O)c1c[nH]c2ccc3c(c12)CN1CCc2cc(OC)c(OC)cc2C1O3 (stereo not drawn)
Reply: 10.3
